Assay: E. coli DRC41 culture turbidity changes, primary screen, E. coli filamentation inducer project, strain DRC41, OD650, 48 h (AID 1152);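 note: E. coli MC1000 strain DRC41 lacking acrAB efflux pump and sulA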
Settings: E. coli DRC41 (acrAB sulA), higher = more signal, called active from +8 up or from −8 down
Response key: satisfied means z-score >= -0.09; not satisfied means z-score < -0.09.

Take a look at these entries with their results.
• C#CCCCON=C1C[C@@H](O)[C@@H](O)[C@@H]2[C@@H]3C(=O)N(C(C)(C)C)C(=O)[C@@H]3CC[C@H]12 = satisfied
• CC(CCN1CCCc2nc(C)c(C)cc21)=NO[C@@H](C)c1cc(-c2c(C)cc(C)cc2C)no1 = satisfied
• CCOC(=O)NN=C1C[C@@H](O)[C@@H](O)[C@@H]2[C@@H]3C(=O)N([C@@H](C)c4ccccc4)C(=O)[C@@H]3CC[C@@H]12 = satisfied
• CO[C@H]1COC(=O)[C@@H]2CCCN2C(=O)CC=C[C@@H](C)[C@H](OC)COC(=O)[C@@H](OCc2ccccc2)C=C[C@@H]1C = not satisfied
• CCOC(=O)[C@H](CC(C)C)NC(=O)CCC1CC(OC(=O)NCc2cccc3ccccc23)CC2(CCCC(COC(=O)NCCC(C)C)O2)O1 (stereo partly drawn) = not satisfied
• CCc1cc2c(nc1CC)CCN(CCC(C)=NO[C@H](C)c1cn([C@H](CO)Cc3ccccc3)nn1)C2 = not satisfied

Consider the additional compound presented here.
Say whether COC(=O)CC=C[C@@H](C)[C@@H](C=NOC(C)CN1CCCc2nc(C)c(C)cc21)OC (stereo partly drawn) shows z-score of -0.09 or more.
not satisfied

====

Each entry below lists one item and its recorded composite z-score value.
Tested on: Human papillomavirus type 1a protein E7 (residues 44-93)
Experiment: HPV1a E7 fragment binders on microarrays, primary screen, biochemical, small-molecule microarray, residues 44-93, 635 nm fluorescence (AID 1108);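 note: E7 fragment applied at 1 µg/mL in TBST for 1 h at 4 C; score combines spot fluorescence with its signal to noise ratio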
Conditions: small-molecule microarray binding, fluorescence 635 nm; higher = more signal
# output: bare number, no unit

Recorded results for 6 molecules are shown here.
* C#CCCCON=C1C[C@@H](O)[C@@H](O)[C@@H]2[C@@H]3C(=O)N(c4ccc(F)cc4F)C(=O)[C@@H]3CC[C@@H]12 | 0.184
* CC(C)[C@@H](OCc1ccccc1)[C@H](C)C=NOC[C@@H](O)COCc1ccco1 | -0.549
* CCOC(=O)NN=C1C[C@@H](O)[C@@H](O)[C@@H]2[C@@H]3C(=O)N(Cc4ccccc4)C(=O)[C@@H]3CC[C@H]12 | -0.0228
* COc1cccc([C@H]2Oc3ccc(OC)cc3C(=NOC[C@@H](C)[C@H](OCc3ccccc3)C(C)C)[C@@H]2O)c1 | 0.274
* CC(C)=CCCC(C)=CCON=C1C[C@@H](O)[C@@H](O)[C@@H]2[C@@H]3C(=O)N(c4ccc(F)cc4F)C(=O)[C@@H]3CC[C@H]12 | 1.36
* COc1cccc([C@@H]2Oc3ccc(OC)cc3C(=O)[C@H]2O)c1 | 0.0299

Now examine the next entry.
composite z-score value, target or system Human papillomavirus type 1a protein E7 (residues 44-93), for CCOC(=O)[C@H](Cc1ccccc1)NC(=O)CCC1CC(OC(=O)NCCc2ccc(F)cc2)CC2(CCCC(COC(=O)NCCOC)O2)O1 (some centres not stated) : 1.4

====

Assay: PSAC antagonists in infected red cells, primary screen, cell-based, P. falciparum Indochina, OD700, 1 h (AID 1154)
Conditions: P. falciparum Indochina infected RBC osmotic lysis, called active from +8 up or from −8 down
The source made the active and inactive calls.
Permitted responses: active, inactive

The following molecules have reported results that may help.
• COC(=O)CC=C[C@@H](C)[C@@H](C=NO[C@@H]1O[C@H](COC(C)=O)[C@@H](OC(C)=O)[C@H](OC(C)=O)[C@H]1OC(C)=O)OC = inactive
• CC(C)=CCCC(C)=CCON=C1C[C@@H](O)[C@@H](O)[C@@H]2[C@@H]3C(=O)N(Cc4ccccc4)C(=O)[C@@H]3CC[C@H]12 = inactive
• COc1ccc(COC(=O)NN=C2C[C@@H](O)[C@@H](O)[C@@H]3[C@@H]4C(=O)N(c5ccc(F)cc5F)C(=O)[C@@H]4CC[C@H]23)cc1 = active
• O=c1n(Cc2cc3c(cc2Cl)OCO3)c(=O)n2n1CC[C@@H]1C(=NOCc3ccccc3)[C@H]3O[C@H]3[C@@H](O)[C@@H]12 = inactive
• C#CCCCON=C1C[C@@H](O)[C@@H](O)[C@@H]2[C@@H]3C(=O)N(Cc4ccccc4)C(=O)[C@@H]3CC[C@@H]12 = inactive

How did this test come out for `CCOC(=O)C1=NO[C@]2(C=C(Br)C3(OCCCO3)[C@H]3O[C@H]32)C1` ?
inactive

For `CC(C)(C)N1C(=O)[C@H]2[C@H]3[C@H](O)[C@H](O)CC(=O)[C@@H]3CC[C@H]2C1=O` , which call appears in the assay record?
inactive

Can you look up the reported call for `COC(=O)CC=C[C@@H](C)[C@@H](C=NO[C@H](C)c1cn([C@@H]2COC[C@H]2O)nn1)NS(=O)(=O)c1ccc(C)cc1` for me?
inactive

Entry `O=c1n(Cc2cc3c(cc2Cl)OCO3)c(=O)n2n1CC[C@@H]1C(=NOC[C@@H](O)COCc3ccco3)[C@H]3O[C@H]3[C@@H](O)[C@@H]12` : call = ?
inactive

Hey, what did the test say about COC(=O)[C@H](C)NC(=O)CCC1CC(OC(=O)NCCc2ccc(F)cc2)CC2(CCCC(COC(=O)NCCC(C)C)O2)O1 (stereo not given in full) ?
active

Hey, what did the test say about `CC(CCN1CCCCc2nc(C)c(C)cc21)=NOC[C@@H](O)COCc1ccco1` ?
inactive

Lab log entry: `COC(=O)CC=C[C@@H](C)[C@H](OCc1cccc(-c2ccccc2)c1)C1CCCCC1` — outcome as called in the assay?
inactive

Per the assay record, what outcome was assigned to `O=C1C[C@@H](O)[C@@H](O)[C@@H]2[C@@H]3C(=O)N(C[C@@H]4CCCO4)C(=O)[C@@H]3CC[C@H]12` ?
inactive

Identify the outcome logged in this assay for the molecule shown: `C#CCCCON=C1C[C@@H](O)[C@@H](O)[C@@H]2[C@@H]3C(=O)N(CCC(=O)OCC)C(=O)[C@@H]3CC[C@H]12`
inactive

In this assay, the call recorded for `CC(CCN1CCCCc2nc(C)c(C)cc21)=NOC[C@@H](C)[C@H](OCc1ccccc1)C(C)C` was what?
inactive

====

Recorded composite z-score values for a group of molecules are listed next.
Target: Dihydroorotate dehydrogenase (quinone), mitochondrial (Plasmodium falciparum (isolate 3D7))
Assay: PfDHODH enzyme inhibitors, primary screen, biochemical, C-terminal His tag, absorbance 600 nm (AID 1175);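 note: recombinant parasite enzyme with a five histidine tag at its C terminus; test concentration not given here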
Details: DCIP absorbance 600 nm, higher = more signal, called active from +8 up or from −8 down
# respond with the number and nothing more

Field: example entries. Status: answers known.
- C#CCCCON=C1C[C@@H](O)[C@@H](O)[C@@H]2[C@@H]3C(=O)N(CCC(=O)OCC)C(=O)[C@@H]3CC[C@H]12: -0.937
- CC(CCN1CCCc2nc(C)c(C)cc21)=NOC(C)CN1CCCCc2nc(C)c(C)cc21 (stereo unspecified): 0.131
- CSCC[C@@H]1NC(=O)CC=C[C@@H](C)COC(=O)[C@@H](C)COC1=O: 0.0037
- CO[C@H]1COC(=O)CC=C[C@H](C)[C@@H](OC)COC(=O)[C@H](C)COC(=O)CC=C[C@@H]1C: 0.491
- CCN1C(=O)[C@H]2[C@H]3[C@H](O)[C@H](O)CC(=O)[C@H]3CC[C@H]2C1=O: -0.794

Given item `CON=CC[C@@H]1C=C[C@H](OC(C)=O)[C@@H](COC(C)=O)O1` , the value recorded as its composite z-score is -1.1

Noted for `COc1ccc(O[C@@H]2[C@H](O)CO[C@@H]2C=Cc2ccccc2)cc1` : its composite z-score reads -3.01

The reported composite z-score of the molecule Cc1cc2c(nc1C)CCCCN2CC(C)ON=C[C@@H](C)[C@H](OCc1ccccc1)C(C)C (stereo partly specified) was -0.983

// sample `COC(=O)[C@@H]1CC[C@H](C)[C@@H](c2ccc(C)cc2)N1C(=O)c1ccc(C=NO[C@H](C)c2cn([C@H](CO)Cc3ccccc3)nn2)cc1` , its composite z-score was 0.271

Quick note, composite z-score for `CO[C@H]1COC(=O)CC=C[C@@H](C)[C@H](OC)COC(=O)CCC[C@@H]1C` landed at -0.526

The reported composite z-score of the molecule `O=C1C=C[C@@H](O)[C@@H]2[C@@H]3C(=O)N(C[C@@H]4CCCO4)C(=O)[C@@H]3CC[C@@H]12` was -0.0546

The recorded composite z-score for entry `CC(C)=CCCC(C)=CCON=C1C[C@@H](O)[C@@H](O)[C@@H]2[C@@H]3C(=O)N(Cc4ccccc4)C(=O)[C@@H]3CC[C@H]12` equals -0.88

# molecule `CC(=O)Nc1ccc([C@@H]2N[C@H](C(=O)O)CC[C@H]2C)cc1` ; its composite z-score = 0.0947

composite z-score for CCOC(=O)[C@H](CC(C)C)NC(=O)CCC1CC(OC(=O)NCc2ccc3c(c2)OCO3)CC2(CCCC(COC(=O)NCC(c3ccccc3)c3ccccc3)O2)O1 (stereo partly specified) is 0.125

The recorded composite z-score for `CCOC(=O)NN=C1C[C@@H](O)[C@@H](O)[C@@H]2[C@@H]3C(=O)N(c4cccc(Oc5ccccc5)c4)C(=O)[C@@H]3CC[C@H]12` is -1.59

// field: composite z-score; key: `COc1cccc([C@H]2Oc3ccc(OC)cc3C(=NO[C@@H]3O[C@H](COC(C)=O)[C@@H](OC(C)=O)[C@H](OC(C)=O)[C@H]3OC(C)=O)[C@@H]2O)c1` ; value = -0.582
